Attribution: patent US10934294B2

We begin with a simple list: items and their reported pKi.
biological target: Human PDE9 (PDE9A2) (Homo sapiens (Human), UniProt O76083); assay: PDE9 IMAP fluorescence polarization (FP) inhibition assay; assay type: biochemical; settings: read-out: PDE9 IMAP Ki; apparent inhibition constant; FAM-cGMP substrate 50 nM, room temperature
Sequence (O76083 other isoform, or with tags, fused parts or gaps): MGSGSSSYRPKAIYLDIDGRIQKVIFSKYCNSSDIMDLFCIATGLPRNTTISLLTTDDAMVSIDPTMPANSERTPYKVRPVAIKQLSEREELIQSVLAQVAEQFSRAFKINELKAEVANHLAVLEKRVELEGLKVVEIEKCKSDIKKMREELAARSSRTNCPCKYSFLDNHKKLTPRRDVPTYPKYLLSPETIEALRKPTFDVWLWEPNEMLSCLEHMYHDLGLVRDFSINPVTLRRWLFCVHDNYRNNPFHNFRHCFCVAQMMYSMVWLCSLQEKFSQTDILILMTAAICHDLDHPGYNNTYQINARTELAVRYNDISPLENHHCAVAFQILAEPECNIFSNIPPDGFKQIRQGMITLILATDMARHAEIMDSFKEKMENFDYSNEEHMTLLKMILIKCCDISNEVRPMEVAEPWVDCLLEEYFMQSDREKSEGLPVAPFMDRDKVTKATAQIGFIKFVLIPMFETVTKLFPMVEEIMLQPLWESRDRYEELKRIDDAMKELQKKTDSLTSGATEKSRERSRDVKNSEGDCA
pKi: −log10 of the molar value.

Query :: Indicate its recorded pKi; the molecule in question is CC(c1cncc(F)c1)n1nc(C#N)c2c(=O)[nH]c(C3CCC3c3ncccn3)nc21 (single isomer, unassigned)
Result :: < 7.17

Next, consider the following molecule.
Query :: Indicate its recorded pKi; the molecule in question is CC(c1cnn(C)c1)n1nc(C#N)c2c(=O)[nH]c(C3CCC3c3ncccn3)nc21 (single isomer, unassigned)
Result :: < 7.17

---

We begin with a simple list: items and their reported pKi.
molecular target: UniProtKB O76083; test: PDE9 IMAP fluorescence polarization (FP) inhibition assay; assay type: biochemical
pKi: −log10 of the molar value.

Examples with answers:
Query :: Indicate its recorded pKi; the compound in question is CC(c1cnn(C)c1)n1nc(C#N)c2c(=O)[nH]c(C3CCC3c3ncccn3)nc21 (stereo not drawn) [Example 71]
Result :: < 7.17

Query :: Indicate its recorded pKi; the compound in question is CC(c1cncc(F)c1)n1nc(C#N)c2c(=O)[nH]c(C3CCC3c3ncccn3)nc21 (single isomer, unassigned) [Example 64]
Result :: < 7.17

Next, consider the following compound.
Query :: Indicate its recorded pKi; the compound in question is CC(c1cnn(C)c1)n1nc(C#N)c2c(=O)[nH]c(C3CCC3c3ncccn3)nc21 (single isomer, unassigned) [Example 68]
Result :: < 7.17

---

We begin with a simple list: items and their reported pKi.
target: Human PDE9 (PDE9A2) (Homo sapiens (Human), UniProt O76083); assay: PDE9 IMAP fluorescence polarization (FP) inhibition assay; assay type: biochemical; conditions: apparent inhibition constant; FAM-cGMP substrate 50 nM, room temperature; read-out: PDE9 IMAP Ki
pKi: −log10 of the molar value.

Examples with answers:
Query :: Indicate its recorded pKi; the compound in question is CC(c1cncc(F)c1)n1nc(C#N)c2c(=O)[nH]c(C3CCC3c3ncccn3)nc21 (stereo not drawn)
Result :: < 7.17

Query :: Indicate its recorded pKi; the compound in question is `C[C@H](c1ccc(C(F)(F)F)nc1)n1nc(C#N)c2c(=O)[nH]c([C@@H]3CC[C@H]3c3nc(C(F)F)cc(C(F)F)n3)nc21`
Result :: 8.08

Next, consider the following compound.
Query :: Indicate its recorded pKi; the compound in question is CC(C1CCOCC1)n1nc(C#N)c2c(=O)[nH]c(C3CCC3c3ncc(F)cn3)nc21 (stereo not drawn)
Result :: < 6.22
